- target: T1, murine serum albumin (murine, UniProt P07724 25-608)
- T1 construct: Bought from Sigma (A3559); also called mouse serum albumin; Mouse
- T1 sequence (P07724 25-608 limits assumed): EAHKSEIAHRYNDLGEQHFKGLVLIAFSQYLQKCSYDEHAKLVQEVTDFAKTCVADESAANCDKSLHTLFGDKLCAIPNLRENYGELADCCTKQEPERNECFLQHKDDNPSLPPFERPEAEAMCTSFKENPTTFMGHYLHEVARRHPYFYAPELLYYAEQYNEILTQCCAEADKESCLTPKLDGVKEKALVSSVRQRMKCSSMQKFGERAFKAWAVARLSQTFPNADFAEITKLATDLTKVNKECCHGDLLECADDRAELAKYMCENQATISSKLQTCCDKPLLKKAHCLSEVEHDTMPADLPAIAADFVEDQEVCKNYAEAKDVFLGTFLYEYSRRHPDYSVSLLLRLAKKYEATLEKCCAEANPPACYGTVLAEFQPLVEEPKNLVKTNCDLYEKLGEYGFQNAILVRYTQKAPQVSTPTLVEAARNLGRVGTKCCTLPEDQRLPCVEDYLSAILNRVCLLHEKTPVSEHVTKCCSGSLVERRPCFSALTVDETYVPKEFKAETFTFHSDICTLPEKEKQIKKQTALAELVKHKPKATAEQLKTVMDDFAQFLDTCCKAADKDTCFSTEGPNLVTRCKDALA
- procedure summary: SPR
Ends that are not written are not given here.
pKd for assorted binders
Note: pKd values are expressed as the negative base-10 logarithm of concentration in M.

Worked examples follow.
- LKEAKEKAIEELKKAGITSDYYFDLINKAKTVEGVNALKDQILKA (designed binder, not fully specified, Expressed and purified as described for ABDCon; also called ABDCon E41Q; not shown: N-terminal 8-His tag as for ABDCon) [ABDCon7]: 7.69
- LKEAKEKAIEELKKAGITSDYAFDLINKAKTVEGVNALKDEILKA (designed binder, not fully specified, Expressed and purified as described for ABDCon; also called ABDCon Y22A; not shown: N-terminal 8-His tag as for ABDCon) [ABDCon4]: 6.24
- LKEAKEKAIEELKKAGITSDYYFDLINKAKAVEGVNALKDEILKA (designed binder, not fully specified, Expressed and purified as described for ABDCon; also called ABDCon T31A; not shown: N-terminal 8-His tag as for ABDCon) [ABDCon9]: 6.26

Request: # pKd lookup, item LKEAKEKAIEELKKAGITSDYSFDLINKAKTVEGVNALKDEILKA (designed binder, not fully specified, Expressed and purified as described for ABDCon; also called ABDCon Y22S; not shown: N-terminal 8-His tag as for ABDCon) [ABDCon5]
Result: 5.78

Request: Also LKEAKEKAIEELKKAGITSDYYFDLINKAKTVEGVNVLKDEILKA (designed binder, not fully specified, Expressed and purified as described for ABDCon; also called ABDCon A37V; not shown: N-terminal 8-His tag as for ABDCon) [ABDCon10] ?
Result: 7.42

Request: Also LKEAKEKAIEELKKAGITSDKYFDLINKAKTVEGVNALKDEILKA (designed binder, not fully specified, Expressed and purified as described for ABDCon; also called ABDCon Y21K; not shown: N-terminal 8-His tag as for ABDCon) [ABDCon3] ?
Result: 6.99

Request: Also LKEAKEKAIEELKKAGITSDYVFDLINKAKTVEGVNALKDEILKA (designed binder, not fully specified, Expressed and purified as described for ABDCon; also called ABDCon Y22V; not shown: N-terminal 8-His tag as for ABDCon) [ABDCon6] ?
Result: 6.72

Request: Also LKEAKEKAIEELKKAGITSDYYFDLINKADTVEGVNALKDEILKA (designed binder, not fully specified, Expressed and purified as described for ABDCon; also called ABDCon K30D; not shown: N-terminal 8-His tag as for ABDCon) [ABDCon8] ?
Result: 6.00
